Entries annotated with measured IC50
SYSTEM_NAME: STAT3 (Homo sapiens)
Construct: plasmid pSTAT3-TA-luc), which contains a stably operating STAT3 promoter; endogenous in cells
Sequence (P40763 whole entry): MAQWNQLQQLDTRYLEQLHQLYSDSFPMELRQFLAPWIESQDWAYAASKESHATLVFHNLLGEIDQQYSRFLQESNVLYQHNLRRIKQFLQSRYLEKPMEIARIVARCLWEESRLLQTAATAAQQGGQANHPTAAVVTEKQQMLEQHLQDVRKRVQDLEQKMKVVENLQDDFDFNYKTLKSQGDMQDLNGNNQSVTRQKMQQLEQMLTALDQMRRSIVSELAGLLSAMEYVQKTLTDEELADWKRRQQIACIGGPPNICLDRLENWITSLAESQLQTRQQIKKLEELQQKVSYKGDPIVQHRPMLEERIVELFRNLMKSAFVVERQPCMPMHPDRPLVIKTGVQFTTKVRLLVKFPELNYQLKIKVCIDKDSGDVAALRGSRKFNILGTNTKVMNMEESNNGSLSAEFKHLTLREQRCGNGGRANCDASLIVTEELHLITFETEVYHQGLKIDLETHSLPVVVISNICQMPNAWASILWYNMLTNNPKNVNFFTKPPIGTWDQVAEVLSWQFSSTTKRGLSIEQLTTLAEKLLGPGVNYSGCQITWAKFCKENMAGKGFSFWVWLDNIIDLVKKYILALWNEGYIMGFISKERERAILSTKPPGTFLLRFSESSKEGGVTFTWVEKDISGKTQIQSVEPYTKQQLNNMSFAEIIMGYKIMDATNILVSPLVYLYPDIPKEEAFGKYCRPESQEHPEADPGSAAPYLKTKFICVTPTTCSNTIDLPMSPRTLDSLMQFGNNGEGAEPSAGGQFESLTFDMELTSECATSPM
TEST_DETAILS: STAT3 reporter gene (luciferase) assay in LNCaP stable cell line stimulated with IL-6
Format: cell-based
PARTICULARS: LNCaP stable cell line (pSTAT3-TA-luc), IL-6 10 ng/mL, 24 hours
PARAMETER_MEASURED: IC50 (µM)

>>> df
                                    compound  parameter_measured  quantitative_result
 0  CS(=O)(=O)C1CCOc2cc3sc(C(=O)Nc4cc(Cl)nc(Oc5ccc(C(F)(F)F)cc5)c4)cc3cc21 (stereo not shown) [Example 17]                IC50               0.0039
 1  CN1CCN(S(C)(=O)=O)c2cc3cc(C(=O)Nc4cc(Cl)nc(Oc5ccc(Cl)cc5)c4)sc3cc21 [Example 7]                IC50                0.012
 2  CS(=O)(=O)C1CCOc2cc3sc(C(=O)Nc4cc(Cl)nc(Oc5ccccc5C(F)(F)F)c4)cc3cc21 (stereo not shown) [Example 39]                IC50                0.014
 3  CS(=O)(=O)C1CCOc2cc3sc(C(=O)Nc4cc(Cl)nc(Oc5ccccc5OC(F)(F)F)c4)cc3cc21 (stereo not shown) [Example 40]                IC50               0.0087
 4  CC(C)(c1ccc(Cl)cc1)c1cc(Cl)cc(NC(=O)c2cc3cc4c(cc3s2)OCCN4S(C)(=O)=O)c1 [Example 56]                IC50               0.0028
 5  CC1(C)CN(S(C)(=O)=O)c2cc3cc(C(=O)Nc4cc(Cl)nc(Oc5ccc(Cl)cc5)c4)sc3cc2O1 [Example 2]                IC50                 0.17
 6  N#CC1CCOc2cc3sc(C(=O)Nc4cc(Cl)nc(Oc5ccc(Cl)cc5)c4)cc3cc21 (stereo not shown) [Example 54]                IC50                 0.18
 7  CS(=O)(=O)C1CCOc2cc3sc(C(=O)Nc4cc(Cl)nc(Oc5ccc(F)cc5)c4)cc3cc21 (stereo not shown) [Example 26]                IC50               0.0073
 8  CS(=O)(=O)C1CCOc2cc3sc(C(=O)Nc4cc(Cl)nc(Oc5cc(F)cc(Cl)c5)c4)cc3cc21 (stereo not shown) [Example 31]                IC50                0.008
 9  COc1ccc(Oc2cc(NC(=O)c3cc4cc5c(cc4s3)OCCC5S(C)(=O)=O)cc(Cl)n2)cc1 (stereo not shown) [Example 22]                IC50                 0.03
10  Cc1cccc(Oc2cc(NC(=O)c3cc4cc5c(cc4s3)OCCC5S(C)(=O)=O)cc(Cl)n2)c1 (stereo not shown) [Example 33]                IC50               0.0098
11  CS(=O)(=O)C1CCOc2cc3sc(C(=O)Nc4cc(Cl)nc(Oc5ccc(F)c(Cl)c5)c4)cc3cc21 (stereo not shown) [Example 27]                IC50               0.0078
12  CS(=O)(=O)[C@@]1(F)CCOc2cc3sc(C(=O)Nc4cc(Cl)nc(Oc5ccc(Cl)cc5)c4)cc3cc21 [Example 45]                IC50               0.0039
13  COc1cc(Cl)cc(Oc2cc(NC(=O)c3cc4cc5c(cc4s3)OCCC5S(C)(=O)=O)cc(Cl)n2)c1 (stereo not shown) [Example 30]                IC50                 0.02
14  CS(=O)(=O)C1CCOc2cc3sc(C(=O)Nc4cc(Cl)nc(Oc5ccc(OC(F)(F)F)cc5)c4)cc3cc21 (stereo not shown) [Example 28]                IC50               0.0051
15  CC1(C)CCN(S(C)(=O)=O)c2cc3cc(C(=O)Nc4cc(Cl)nc(Oc5ccc(Cl)cc5)c4)sc3cc21 [Example 4]                IC50                 0.93
16  O=C(Nc1cc(Cl)nc(Oc2ccc(Cl)cc2)c1)c1cc2cc3c(cc2s1)OCCC3n1cccn1 (stereo not shown) [Example 52]                IC50                  0.1
17  CS(=O)(=O)C1CCOc2cc3sc(C(=O)Nc4cc(Cl)nc(Oc5ccc(Cl)c(Cl)c5)c4)cc3cc21 (stereo not shown) [Example 24]                IC50               0.0062
18  CS(=O)(=O)C1CCOc2cc3sc(C(=O)Nc4cc(Cl)nc(Oc5cccc(Cl)c5F)c4)cc3cc21 (stereo not shown) [Example 36]                IC50                0.014
19  C[C@]1(S(C)(=O)=O)CCOc2cc3sc(C(=O)Nc4cc(Cl)nc(Oc5ccc(Cl)cc5)c4)cc3cc21 [Example 47]                IC50               0.0045
20  CS(=O)(=O)[C@H]1CCOc2cc3sc(C(=O)Nc4cc(Cl)nc(Oc5ccc(Cl)cc5)c4)cc3cc21 [Example 43]                IC50                0.018
21  CS(=O)(=O)C1CCOc2cc3sc(C(=O)Nc4cc(Cl)nc(Oc5cccc(Cl)c5)c4)cc3cc21 (stereo not shown) [Example 25]                IC50                0.011
22  CS(=O)(=O)N1CCCc2cc3sc(C(=O)Nc4cc(Cl)nc(Oc5ccc(Cl)cc5)c4)cc3cc21 [Example 6]                IC50                0.003
23  Cc1ccc(Oc2cc(NC(=O)c3cc4cc5c(cc4s3)OCCC5S(C)(=O)=O)cc(Cl)n2)cc1 (stereo not shown) [Example 15]                IC50                0.018
24  CS(=O)(=O)C1(F)CCOc2cc3sc(C(=O)Nc4cc(Cl)nc(Oc5ccc(Cl)cc5)c4)cc3cc21 (stereo not shown) [Example 13]                IC50               0.0081

Source: patent US10633394B2
